I'd be grateful if you could share measured Percent Effect for these entries.
Test system: Wolbachia pipientis
Experiment description: Anti-Wolbachia Cell-Based Screen
Type: functional
Set-up: scale not given: in the data most compounds retested in dose-response had high values
Assay context: 5 µM
In all, about 48,000 compounds went through this assay and about 13,000 (27%) showed an effect of 50% or more. This is one part of the list.
One number for each entry, in %.

molecule="CC(=O)Nc1nc(CN2CCCC2c2cnn(C)c2)cs1 (stereo unspecified)" meas_value=-2.623
molecule="Fc1ccc2[nH]c(C3CCCN3Cc3c[nH]cn3)nc2c1 (stereo unspecified)" meas_value=-35.05
molecule="Cc1nc(CN2CCCC2c2[nH]ncc2C(=O)N(C)C)cs1 (stereo unspecified)" meas_value=135.6
molecule="CN(CC1CC1)C(=O)CN1CCCC1c1cnn(C)c1 (stereo unspecified)" meas_value=-56.85

Fill in Percent Effect for each of the 2 molecules listed.
1. Cc1ccc2nc(C3CCCN3Cc3csc(C)n3)[nH]c2c1 (stereo unspecified)
2. Cn1ccnc1CN1CCCCC1c1nc(-c2ccccc2)no1 (stereo unspecified)

2.616
18.03

Data origin: ChEMBL document CHEMBL3988442
